Kindly supply the reported ED50 values for the records listed here.
# Organism: Mus musculus
# assay_name: Compound was evaluated for oral efficacy on systemic infections in mice by Escherichia coli KC-14
# Assay type: functional
Quick reminder: number only, in mg/kg, skip the unit.

Request: I'd like to know its ED50. The compound in question is Cc1oc(=O)oc1CN1CCN(c2cc3c(cc2F)c(=O)c(C(=O)O)c2n3C(C)S2)CC1 (configuration not stated)
Response: 0.35

Request: Requested field: ED50. Item: CCOC(=O)c1c2n(c3cc(N4CCN(C)CC4)c(F)cc3c1=O)C(c1ccccc1)S2 (configuration not stated)
Response: 0.89

Request: Which ED50 value is on record for CC1COc2c(N3CCN(C)CC3)c(F)cc3c(=O)c(C(=O)O)cn1c23 (configuration not stated) ?
Response: 0.55

Request: Request the reported ED50 associated with "O=C(O)c1cn(C2CC2)c2cc(N3CCNCC3)c(F)cc2c1=O"
Response: 0.45

Request: Sample "CN1CCN(c2cc3c(cc2F)c(=O)c(C(=O)O)c2n3CS2)CC1" — what was its ED50?
Response: 1.77

Request: What value of ED50 has been reported for the following compound? CC1Sc2c(C(=O)O)c(=O)c3cc(F)c(N4CCN(C)CC4)cc3n21 (configuration not stated)
Response: 0.97

Request: Reported ED50, compound CCOC(=O)c1c2n(c3cc(N4CCN(CC(C)=O)CC4)c(F)cc3c1=O)C(C)S2 (configuration not stated) : ____
Response: 0.78

###

# System: Staphylococcus aureus
# assay_name: In vitro antibacterial activity against Staphylococcus aureus 209P JC-1
# Type: functional
# run_parameters: Staphylococcus aureus; read-out: MIC
parameter: MIC (µg/mL)
Provide the reading as a plain figure in µg/mL.

Request: Given the compound CC1Sc2c(C(=O)O)c(=O)c3cc(F)c(N4CCCC4)cc3n21 (stereo not given) , what is its reported MIC?
Response: 0.05

Request: # MIC lookup, item "Cl.O.O=C(O)c1c2n(c3cc(N4CCNCC4)c(F)cc3c1=O)CS2"
Response: 0.05

Request: Please report the recorded MIC for CC1Sc2c(C(=O)O)c(=O)c3cc(Cl)c(N4CCN(C)CC4)cc3n21 (stereo not given) .
Response: 0.2

Request: // returns reported MIC for input CC1Sc2c(C(=O)O)c(=O)c3cc(F)c(N4CCOCC4)cc3n21 (stereo not given)
Response: 0.1

Request: Name the recorded MIC for CC1Sc2c(C(=O)O)c(=O)c3cc(F)c(N4CCN(C)CC4)cc3n21 (stereo not given) .
Response: 0.1

Request: Can you share its MIC? I mean this compound: CC1Sc2c(C(=O)O)c(=O)c3cc(Cl)c(N4CCNCC4)cc3n21 (stereo not given)
Response: 0.1

Request: State the recorded MIC for this entry: CC1Sc2c(C(=O)O)c(=O)c3cc(F)c(N4CCN(CCO)CC4)cc3n21 (stereo not given)
Response: 0.1

Request: What value of MIC has been reported for the following compound? CC1Sc2c(C(=O)O)c(=O)c3cc(F)c(-n4ccnc4)cc3n21 (stereo not given)
Response: 0.39

Request: What does the record list as MIC for C=CCN1CCN(c2cc3c(cc2F)c(=O)c(C(=O)O)c2n3C(C)S2)CC1 (stereo not given) ?
Response: 0.05

Request: Sample CC(C)N1CCN(c2cc3c(cc2F)c(=O)c(C(=O)O)c2n3C(C)S2)CC1 (stereo not given) — what was its MIC?
Response: 0.05

###

# System: Micrococcus luteus
# assay_name: In vitro antibacterial activity against Micrococcus luteus ATCC 9341
# Assay type: functional
# run_parameters: Micrococcus luteus, ATCC 9341; read-out: MIC
parameter: MIC
State the value with its unit after it.

Request: I would be grateful if you could share the reported MIC for CC1Sc2c(C(=O)O)c(=O)c3cc(F)c(N4CCCC4)cc3n21 (stereo unspecified) .
Response: 0.78 µg/mL

Request: Requested read-out: MIC. Entry: CC1Sc2c(C(=O)O)c(=O)c3cc(F)c(N4CCOCC4)cc3n21 (stereo unspecified)
Response: 1.56 µg/mL

Request: Form field: reported MIC of CC1Sc2c(C(=O)O)c(=O)c3cc(F)c(N4CCN(Cc5ccc(N)cc5)CC4)cc3n21 (stereo unspecified)
Response: 0.39 µg/mL

Request: Find the recorded MIC belonging to "O=C(O)c1c2n(c3cc(N4CCNCC4)c(Cl)cc3c1=O)CS2" and report it.
Response: 6.25 µg/mL

Request: Can you look up the measured MIC of "O=C(O)c1cn(C2CC2)c2cc(N3CCNCC3)c(F)cc2c1=O" for me?
Response: 1.56 µg/mL

Request: If you can, please state the reported MIC value of "Cl.O.O=C(O)c1c2n(c3cc(N4CCNCC4)c(F)cc3c1=O)CS2" .
Response: 25 µg/mL

###

# assay_name: Lethal dose on systemic infections in mice after oral administration
# Type: toxicity, organism-based
# run_parameters: mouse, in vivo
parameter: LD50

Request: So what does the record say about LD50 for Cc1oc(=O)oc1CN1CCN(c2cc3c(cc2F)c(=O)c(C(=O)O)c2n3C(C)S2)CC1 (stereo unspecified) ?
Response: > 500 mg/kg

###

# Tested on: Shigella flexneri
# assay_name: In vitro antibacterial activity against Shigella flexneri 2a EW-10
# Type: functional
# run_parameters: Shigella flexneri; read-out: MIC
Please provide measured MIC for the entries that follow.
Just the number in µg/mL, nothing appended.

Request: Can you share its MIC? I mean this compound: CC1COc2c(N3CCN(C)CC3)c(F)cc3c(=O)c(C(=O)O)cn1c23 (stereo unspecified)
Response: 0.1

Request: Which MIC is reported for this compound? CC1Sc2c(C(=O)O)c(=O)c3cc(F)c(N4CCN(CCO)CC4)cc3n21 (stereo unspecified)
Response: 0.05

Request: Can you share its MIC? I mean this compound: CC1Sc2c(C(=O)O)c(=O)c3cc(F)c(N4CCCNCC4)cc3n21 (stereo unspecified)
Response: 0.1

Request: Return reported MIC; argument: CC1Sc2c(C(=O)O)c(=O)c3cc(F)c(-n4ccnc4)cc3n21 (stereo unspecified)
Response: 0.1

Request: Quick check: MIC of CC1Sc2c(C(=O)O)c(=O)c3cc(F)c(N4CCOCC4)cc3n21 (stereo unspecified) ?
Response: 0.1

Request: # input compound: O=C(O)c1c2n(c3cc(N4CCNCC4)c(F)cc3c1=O)C(c1ccc(F)cc1)S2 (stereo unspecified) ; wanted: its MIC
Response: 0.025

Request: Looking for the measured MIC of CC1Sc2c(C(=O)O)c(=O)c3cc(Cl)c(N4CCNCC4)cc3n21 (stereo unspecified) , can you help?
Response: 0.0125

Request: Query (compound): CCN1CCN(c2cc3c(cc2F)c(=O)c(C(=O)O)c2n3C(C)S2)CC1 (stereo unspecified) ; field requested: MIC
Response: 0.025

Request: Field request: MIC | item: "CN1CCN(c2cc3c(cc2F)c(=O)c(C(=O)O)c2n3CS2)CC1"
Response: 0.006

Request: I have this compound here, CC1Sc2c(C(=O)O)c(=O)c3cc(F)c(N4CCNC(=O)C4)cc3n21 (stereo unspecified) , and I need its recorded MIC.
Response: 0.1

Request: Name the recorded MIC for CN1CCN(c2cc3c(cc2F)c(=O)c(C(=O)O)c2n3C(c3ccc(F)cc3F)S2)CC1 (stereo unspecified) .
Response: 0.78

Request: Bench note: what MIC did CC1Sc2c(C(=O)O)c(=O)c3cc(F)c(N4CCN(C)CC4)cc3n21 (stereo unspecified) show?
Response: 0.0125

Request: Looking for the measured MIC of CC(=O)N1CCN(c2cc3c(cc2F)c(=O)c(C(=O)O)c2n3C(C)S2)CC1 (stereo unspecified) , can you help?
Response: 0.39

Request: Bench note: what MIC did CC1Sc2c(C(=O)O)c(=O)c3cc(Cl)c(N4CCN(C)CC4)cc3n21 (stereo unspecified) show?
Response: 0.1

Request: Tell me the measured MIC of O=C(O)c1c2n(c3cc(N4CCNCC4)c(F)cc3c1=O)C(c1ccccc1)S2 (stereo unspecified) , please.
Response: 0.025

Request: Please report the recorded MIC for "Cl.O.O=C(O)c1c2n(c3cc(N4CCNCC4)c(F)cc3c1=O)CS2" .
Response: 0.025

Request: Param item = "O=C(O)c1cn(C2CC2)c2cc(N3CCNCC3)c(F)cc2c1=O" ; retrieve measured MIC.
Response: 0.006

Request: Recorded MIC for CC1Sc2c(C(=O)O)c(=O)c3cc(F)c(N4CCN(Cc5ccc(N)cc5)CC4)cc3n21 (stereo unspecified) , please?
Response: 0.1

Request: GET /values?readout=MIC&item= CC(C)N1CCN(c2cc3c(cc2F)c(=O)c(C(=O)O)c2n3C(C)S2)CC1 (stereo unspecified)
Response: 0.025

Request: Which MIC is reported for this compound? "CN1CCN(c2cc3c(cc2Cl)c(=O)c(C(=O)O)c2n3CS2)CC1"
Response: 0.1

Request: Value lookup for MIC; key = C=CCN1CCN(c2cc3c(cc2F)c(=O)c(C(=O)O)c2n3C(C)S2)CC1 (stereo unspecified)
Response: 0.025
